system: K-562 leukemia; test: NCI-60 one-dose screen, 48 h (100 = growth as untreated, 0 = no growth, -100 = all killed); details: 10 µM unless noted
About 83,000 compounds went through this panel and 20% of them were active in at least one assay; those are over-represented in the sample as a whole.
In this section, each of the molecules is paired with its reported growth.
Provide the reading as a plain figure in %.

[
  {
    "MOLECULE": "Cc1c(C(=O)/C=C/c2ccc(Cl)cc2)nnn1-c1ccc2oc(=O)ccc2c1",
    "MEASURE_UNIT": "%",
    "OBSERVED": 83.4
  },
  {
    "MOLECULE": "CCOC(=O)c1ccc(NC2=C(Cl)C(=O)c3nc(C)ccc3C2=O)cc1",
    "MEASURE_UNIT": "%",
    "OBSERVED": 7.29
  },
  {
    "MOLECULE": "COC(=O)c1cccc(NC2=C(Cl)C(=O)C(C)=C(C)C2=O)c1",
    "MEASURE_UNIT": "%",
    "OBSERVED": 5.25
  },
  {
    "MOLECULE": "CN(C)c1ccc(-c2cc(-c3c[nH]c4ccccc34)nc(N)c2C#N)cc1",
    "MEASURE_UNIT": "%",
    "OBSERVED": 17.5
  }
]

Data request, read-out growth, for COc1ccc(C2CC(c3cccc(OCCCCOc4cccc(C5=NN(C(C)=O)C(c6ccc(OC)cc6)C5)c4)c3)=NN2C(C)=O)cc1 (stereo not given)
37

====

Tested on: SNB-75 CNS
Experiment: NCI-60 one-dose screen, 48 h (100 = growth as untreated, 0 = no growth, -100 = all killed)
Details: 10 µM unless noted
Protocol: Growth inhibition of the SNB-75 human tumor cell line is measured as a screen for anti-cancer activity. Cells are grown in 96 well plates and exposed to the test compound for 48 hours. Compounds are tested at a single concentration, which is 10^-5 M for most compounds. The reported endpoint is percent growth (GI% or GIPRCNT), where numbers from 0 - 100% represent growth inhibition, and numbers from -100% - 0 represent cell death. For example, a value of 40 represents 60% growth inhibition. […]
Compounds without any hit were thinned out: in the full panel of roughly 83,000, 20% have a hit.
Entries are grouped by growth into these classes: interval 1 = under 70%, interval 2 = from 70% up to 90%, interval 3 = 90% and over

Use these answered entries as a reference point.
[
  {
    "COMPOUND": "C=C(C)[C@@H]1CC[C@]2(C(=O)NC3CCCCC3)CC[C@]3(C)[C@H](CC[C@@H]4[C@@]5(C)CC[C@H](N)C(C)(C)[C@@H]5CC[C@]43C)[C@@H]12",
    "MEASUREMENT_TARGET": "SNB-75 CNS",
    "ANSWER_LABEL": "interval 2"
  },
  {
    "COMPOUND": "O=C(CSc1nnc(-c2ccc(Cl)cc2)n1-c1ccccc1)Nc1ccc(Cl)cc1",
    "MEASUREMENT_TARGET": "SNB-75 CNS",
    "ANSWER_LABEL": "interval 1"
  },
  {
    "COMPOUND": "CNC(=O)Nc1ccc(Nc2cc(-c3ccc(-n4cccn4)cc3)[nH]n2)c(C)c1",
    "MEASUREMENT_TARGET": "SNB-75 CNS",
    "ANSWER_LABEL": "interval 3"
  }
]

Hi, small favor: classify CC[C@]12CC(C(=O)OC)=C3Nc4ccccc4[C@@]34CCN(C14)[C@@H]1c3cc4c(cc3O[C@@H]1[C@H]2O)NC1=C(C(=O)OC)C[C@@]2(CC)C3N(CC[C@@]143)C[C@H]1O[C@H]12 (stereo not given in full) by its growth when you get a moment.
interval 1

Could you tell me which band CCCCc1nc2c(N)nc3ccccc3c2n1Cc1cccc(CN)c1 belongs to?
interval 1

Just checking, what class would you give CC[C@]12C=CCN3CC[C@@]4(c5ccc(OC)cc5N(C)[C@H]4[C@@](O)(C(=O)OC)[C@@H]1OC(=O)CCN1CCc4ccccc4C1)[C@@H]32 here?
interval 1

====

test system: SK-MEL-5 melanoma; assay: NCI-60 one-dose screen, 48 h; conditions: 10 µM unless noted
The panel holds about 83,000 compounds, 20% with a hit somewhere; the sample as a whole holds those more often. Calls of active or inactive are those of the source. How the source made its calls: active means growth percent below 10; inactive means the rest.
Hi there, use one of these labels in your reply, thanks! YES = active, NO = inactive

Take a look at these entries with their results.
[
  {
    "MOLECULE": "CCCCCCCCCCCC(=O)NC(C)(C)C(=O)N1CCCC1C(=O)NC(C)(C)C(=O)NC(C)(C)C(=O)N1CCCC1C(=O)NC(C)(C)C(=O)NC(C)(C)C(=O)N1CCCC1C(=O)NC(C)C(=O)NCCC(=O)NC(C)C(=O)NC(C)(C)C(=O)NC(C)(C)C(=O)NC(C)(C)C(=O)NCCC(=O)NC(C)(C)C(=O)NC(C)(C)C(=O)NC(C)(C)C(=O)NC(C)C(=O)NCCC(=O)O (stereo not drawn)",
    "ANSWER_LABEL": "YES"
  },
  {
    "MOLECULE": "CNC(=O)c1cc(-n2ccc3cc(NC(=O)Nc4ccc(N5CCN(C)CC5)c(C(F)(F)F)c4)ccc32)ccn1",
    "ANSWER_LABEL": "NO"
  }
]

# lookup: test call for C#C[C@]1(O)CC[C@H]2[C@@H]3CC=C4c5sc(Nc6cccc(F)c6)nc5CC[C@]4(C)[C@H]3CC[C@@]21C
NO

====

Listing of recorded growth by entry.
system: BT-549 breast; assay: NCI-60 one-dose screen, 48 h (100 = growth as untreated, 0 = no growth, -100 = all killed); details: 10 µM unless noted
This is part of a sample that, as a whole, favours compounds with a hit. Of some 83,000 tested, about 20% had one in any assay.
Give a bare numeral; the unit % is implied.

[
  {
    "MOLECULE": "CCCCCCOC(=O)c1cc(-c2ccc(F)cc2)nc2ccccc12",
    "MEASURE_UNIT": "%",
    "OBSERVED": 103
  },
  {
    "MOLECULE": "CC(=O)OC[C@@]12Oc3c(cccc3-c3ccc(O)c4c3O[C@]3(COC(C)=O)C(=C4O)C(=O)C[C@H](C)[C@@H]3OC(C)=O)C(O)=C1C(=O)C[C@H](C)[C@@H]2OC(C)=O",
    "MEASURE_UNIT": "%",
    "OBSERVED": -1.88
  },
  {
    "MOLECULE": "COC(=O)c1ccc(NC2=C(Cl)C(=O)C(C)=C(C)C2=O)cc1",
    "MEASURE_UNIT": "%",
    "OBSERVED": 77.5
  },
  {
    "MOLECULE": "O=c1c2ccccc2cc2n1CCN=C2c1ccccc1",
    "MEASURE_UNIT": "%",
    "OBSERVED": 116
  },
  {
    "MOLECULE": "O=C(CSc1nnc(-c2ccc(Cl)cc2)n1-c1ccccc1)Nc1cccc(F)c1",
    "MEASURE_UNIT": "%",
    "OBSERVED": 50.4
  }
]

What value of measured growth is listed for Brc1cc(-c2cc(-c3ccc4c(c3)OCCO4)[nH]n2)cs1 ?
66

What measured growth goes with NC1[C@H]2CN(c3cnc(C(=O)Nc4cc(F)cc5cccnc45)cn3)C[C@@H]12 (some centres undefined) ?
91.8

Any idea what growth was measured for CS(=O)(=O)c1nccc(-c2c(-c3cccc(OCc4ccc(Cl)c(C(F)(F)F)c4)c3)nc3sccn23)n1 ?
101

Item under review: N/C(=N\C(N)=N\c1nc2ccccc2s1)c1ccc(Cl)cc1 . Reported growth?
94.4

====

# growth values compiled below
Test system: SN12C renal
Assay: NCI-60 one-dose screen, 48 h (100 = growth as untreated, 0 = no growth, -100 = all killed)
Settings: 10 µM unless noted
Procedure: Growth inhibition of the SN12C human tumor cell line is measured as a screen for anti-cancer activity. Cells are grown in 96 well plates and exposed to the test compound for 48 hours. Compounds are tested at a single concentration, which is 10^-5 M for most compounds. The reported endpoint is percent growth (GI% or GIPRCNT), where numbers from 0 - 100% represent growth inhibition, and numbers from -100% - 0 represent cell death. For example, a value of 40 represents 60% growth inhibition. […]
This is part of a sample that, as a whole, favours compounds with a hit. Of some 83,000 tested, about 20% had one in any assay.
All answers are understood in %, so give the number only.

The following molecules have reported results that may help.
[
  {
    "MOLECULE": "Cc1cc(Br)ccc1-n1cc(C#N)c(N)c1C(=O)c1ccc(Br)cc1",
    "MEASUREMENT_TARGET": "SN12C renal",
    "MEASURE_UNIT": "%",
    "growth": 110
  },
  {
    "MOLECULE": "Cc1ccc2c(n1)C(=O)C(Cl)=C(Nc1ccc(C(F)(F)F)cc1)C2=O",
    "MEASUREMENT_TARGET": "SN12C renal",
    "MEASURE_UNIT": "%",
    "growth": 91.8
  },
  {
    "MOLECULE": "C#CCOc1ccc(/C=N/Nc2nc(-c3ccc(OC)cc3)cs2)cc1",
    "MEASUREMENT_TARGET": "SN12C renal",
    "MEASURE_UNIT": "%",
    "growth": 78.3
  },
  {
    "MOLECULE": "O=C1[C@@H]2Cc3c([nH]c4ccccc34)[C@@H](c3ccc(Cl)cc3)N2C(=O)CN1C1CCN(Cc2c(F)cccc2F)CC1",
    "MEASUREMENT_TARGET": "SN12C renal",
    "MEASURE_UNIT": "%",
    "growth": 38.5
  },
  {
    "MOLECULE": "CCCCN1C(=O)/C(=c2\\sc3n(c2=O)C2C(NN=3)N(CC)C(=O)N2CC)c2cc(C)ccc21 (configuration not stated)",
    "MEASUREMENT_TARGET": "SN12C renal",
    "MEASURE_UNIT": "%",
    "growth": 97.9
  },
  {
    "MOLECULE": "Cc1ccc2c(n1)C(=O)C(Cl)=C(Nc1ccccc1C(=O)OC(C)(C)C)C2=O",
    "MEASUREMENT_TARGET": "SN12C renal",
    "MEASURE_UNIT": "%",
    "growth": 52.6
  },
  {
    "MOLECULE": "O=C(CN1CCN(c2cc(=O)[nH]c3ccc(F)cc23)CC1)N(c1ccccc1)c1ccccc1",
    "MEASUREMENT_TARGET": "SN12C renal",
    "MEASURE_UNIT": "%",
    "growth": 97.1
  },
  {
    "MOLECULE": "NC1[C@H]2CN(c3cnc(C(=O)Nc4cc(F)cc5cccnc45)cn3)C[C@@H]12 (some centres not stated)",
    "MEASUREMENT_TARGET": "SN12C renal",
    "MEASURE_UNIT": "%",
    "growth": 69.8
  },
  {
    "MOLECULE": "CC1(C)CC[C@]23CC[C@]4(C)[C@H](CC[C@@H]5[C@@]6(C)CC[C@H](NCO)C(C)(C)[C@@H]6CC[C@]54C)[C@H]2[C@H]1OC3",
    "MEASUREMENT_TARGET": "SN12C renal",
    "MEASURE_UNIT": "%",
    "growth": 43.3
  },
  {
    "MOLECULE": "CS(=O)(=O)c1nccc(-c2c(-c3cccc(OCc4ccc(Cl)c(C(F)(F)F)c4)c3)nc3sccn23)n1",
    "MEASUREMENT_TARGET": "SN12C renal",
    "MEASURE_UNIT": "%",
    "growth": 74.7
  }
]

Fill blank: measured growth of the molecule C(=N\Nc1nc(N/N=C/c2ccc3c(c2)OCO3)nc(N2CCCCC2)n1)/c1ccc2c(c1)OCO2 is ____.
79.7

Returns the measured growth for the input molecule. Input: N#Cc1c(-c2cccs2)cc(-c2cnccn2)nc1SCC(=O)N/N=C/c1ccccc1
45.5

Find the recorded growth belonging to N#Cc1nc(-c2ccc(Cl)cc2)oc1N1CCC(S(=O)(=O)N2CCOCC2)CC1 and report it.
94.1

Can you look up the measured growth of COc1ccc(-c2c(C(N)=O)c(N)n(Cc3nc4ccccc4[nH]3)c(=O)c2C#N)c(OC)c1 for me?
101

Requested field: growth. Item: COc1ccc(/C=N\NC(=O)c2cnn(CC(O)c3ccccc3)c2N)cc1OCc1ccc(Cl)cc1 (configuration not stated)
84.4

Request the reported growth associated with C=CCSC1=NC2C(N(CC)C(=O)N2CC)N1/N=C/C=C/c1ccccc1OC (configuration not stated)
97.5
